tested on: AMARE; assay: Pre-emergence herbicidal action against AMARE; type: in vivo, Amaranthus retroflexus; conditions: 320 g/ha
Would you kindly list Pre-emergence action against AMARE in % for each of these compounds?
Give the quantity in %, number only.

Pre-emergence action against AMARE in % for CC#Cc1cc(C)c(C2=C(O)C3(CCC(COCCOC)C3)NC2=O)c(OC)c1 (centres unmarked) is 80

Sure, the documented Pre-emergence action against AMARE in % for C#CCOCC1CCC2(C1)NC(=O)C(c1c(C)cc(C#CC)cc1Cl)=C2O (centres unmarked) [Example I-78] is 100

The recorded Pre-emergence action against AMARE in % for entry CC#Cc1cc(C)c(C2=C(OC(=O)OCC)C3(CCC(COCC)C3)NC2=O)c(Br)c1 (centres unmarked) equals 100

Summary for this compound, C#CCOCC1CCC2(C1)NC(=O)C(c1c(C)cc(C#CC)cc1Cl)=C2O (centres unmarked) [Example I-79] : Pre-emergence action against AMARE in % is 100

GET /value?item= CC#Cc1cc(C)c(C2=C(OC(=O)OCC)C3(CCC(COCCOC)C3)NC2=O)c(OC)c1 (centres unmarked) [Example P-80] &field=Pre-emergence action against AMARE in % returns 90

---

test system: ECHCG; assay: Pre-emergence herbicidal action against ECHCG; assay type: in vivo, Echinochloa crus-galli; details: 320 g/ha, scored visually after 3 weeks vs untreated controls
Please go through the items and note down their Pre-emergence action against ECHCG in %.
Note: unit % is implicit; provide only the numeric part.

Lab entry: ECHCG assay, molecule CC#Cc1cc(C)c(C2=C(OC(=O)C(C)C)C3(CCC(COCC)C3)NC2=O)c(OC)c1 (stereo not shown) [Example P-60] , Pre-emergence action against ECHCG in % = 100

Entry CC#Cc1cc(F)c(C2=C(O)C3(CCC(COCCC)C3)NC2=O)c(OC)c1 (stereo not shown) [Example I-56] ; assay system ECHCG; Pre-emergence action against ECHCG in % recorded at 100

Entry CC#Cc1cc(F)c(C2=C(OC(=O)C(C)C)C3(CCC(COCC)C3)NC2=O)c(OC)c1 (stereo not shown) [Example P-64] ; assay system ECHCG; Pre-emergence action against ECHCG in % recorded at 90

Entry CC#Cc1cc(C)c(C2=C(OC(=O)OCC)C3(CCC(COCCOC)C3)NC2=O)c(OC)c1 (stereo not shown) [Example P-80] : Pre-emergence action against ECHCG in % on ECHCG = 100

---

system: DIGSA; test: Post-emergence herbicidal action against DIGSA; format: in vivo, Digitaria sanguinalis; settings: 80 g/ha, visual assessment about 3 weeks after treatment vs untreated controls
Please respond with reported Post-emergence action against DIGSA in % for every item in the list.
Write it as a number; the unit % goes unstated.

Note to self: Post-emergence action against DIGSA in % recorded for C#CCOCC1CCC2(C1)NC(=O)C(c1c(F)cc(C#CC)cc1OC)=C2O (stereo not drawn) [Example I-74] was 90

Post-emergence action against DIGSA in % for C#CCOCC1CCC2(C1)NC(=O)C(c1c(C)cc(C#CC)cc1Cl)=C2O (stereo not drawn) [Example I-78] is 90

The recorded Post-emergence action against DIGSA in % for CC#Cc1cc(C)c(C2=C(O)C3(CCC(COCC)C3)NC2=O)c(Cl)c1 (stereo not drawn) [Example I-09] is 100

The recorded Post-emergence action against DIGSA in % for entry CC#Cc1cc(Cl)c(C2=C(OC(=O)C(C)C)C3(CCC(COC)C3)NC2=O)c(CC)c1 (stereo not drawn) [Example P-22] equals 100

// Post-emergence action against DIGSA in % lookup, compound = CC#Cc1cc(C)c(C2=C(OC(=O)OCC)C3(CCC(COCCC)C3)NC2=O)c(OC)c1 (stereo not drawn) [Example P-81] , result: 90

Item: CC#Cc1cc(Br)c(C2=C(OC(=O)C(C)C)C3(CCC(COCC)C3)NC2=O)c(OC)c1 (stereo not drawn) [Example P-23] | Post-emergence action against DIGSA in %: 100

The reported Post-emergence action against DIGSA in % of the compound CC#Cc1cc(C)c(C2=C(O)C3(CCC(COC)C3)NC2=O)c(F)c1 (stereo not drawn) [Example I-36] was 100

The reported Post-emergence action against DIGSA in % of the compound CC#Cc1cc(Cl)c(C2=C(O)C3(CCC(COC)C3)NC2=O)c(OC)c1 (stereo not drawn) [Example I-73] was 100

For C#CCOCC1CCC2(C1)NC(=O)C(c1c(C)cc(C#CC)cc1Cl)=C2O (stereo not drawn) [Example I-79] the compound record lists Post-emergence action against DIGSA in % as 100

Post-emergence action against DIGSA in % reported for this compound C#CCOCC1CCC2(C1)NC(=O)C(c1c(C)cc(C#CC)cc1Cl)=C2OC(=O)OCC (stereo not drawn) [Example P-99] : 90

# Post-emergence action against DIGSA in % of C#Cc1cc(Cl)c(C2=C(O)C3(CCC(COCC)C3)NC2=O)c(OC)c1 (stereo not drawn) [Example I-08] = 80

Briefly, Post-emergence action against DIGSA in % measured for C=CCOCC1CCC2(C1)NC(=O)C(c1c(C)cc(C#CC)cc1Cl)=C2OC(=O)OCC (stereo not drawn) [Example P-71] : 90

Post-emergence action against DIGSA in % reading for CC#Cc1cc(F)c(C2=C(OC(=O)OCC)C3(CCC(COCCC)C3)NC2=O)c(OC)c1 (stereo not drawn) [Example P-84] : 90

Notebook: CC#Cc1cc(C)c(C2=C(O)C3(CCC(COCC)C3)NC2=O)c(Cl)c1 (stereo not drawn) [Example I-02] , Post-emergence action against DIGSA in % read as 90

Looking up CC#Cc1cc(Br)c(C2=C(OC(=O)OCC)[C@]3(CC[C@H](COCC)C3)NC2=O)c(OC)c1 (stereo in doubt) [Example P-13] , I found its Post-emergence action against DIGSA in % recorded as 100

Entry CC#Cc1cc(Cl)c(C2=C(OC(=O)C(C)C)C3(CCC(COC)C3)NC2=O)c(CC)c1 (stereo not drawn) [Example P-14] — recorded Post-emergence action against DIGSA in % = 100

Value of measured Post-emergence action against DIGSA in % for the entry CC#Cc1cc(C)c(C2=C(OC(=O)OCC)C3(CCC(COC)C3)NC2=O)c(Br)c1 (stereo not drawn) [Example P-30] : 100

Entry C#CCOCC1CCC2(C1)NC(=O)C(c1c(C)cc(C#CC)cc1OC)=C2OC(=O)OCC (stereo not drawn) [Example P-101] ; Post-emergence action against DIGSA in % = 90

Notebook: CC#Cc1cc(C)c(C2=C(O)C3(CCC(COCC)C3)NC2=O)c(F)c1 (stereo not drawn) [Example I-37] , Post-emergence action against DIGSA in % read as 100

The recorded Post-emergence action against DIGSA in % for entry CC#Cc1cc(C)c(C2=C(O)C3(CCC(COCC)C3)NC2=O)c(Br)c1 (stereo not drawn) [Example I-21] equals 100

CC#Cc1cc(F)c(C2=C(O)C3(CCC(COC)C3)NC2=O)c(OC)c1 (stereo not drawn) [Example I-40] yielded Post-emergence action against DIGSA in % of 100

Entry C=CCOCC1CCC2(C1)NC(=O)C(c1c(C)cc(C#CC)cc1Br)=C2O (stereo not drawn) [Example I-67] , Post-emergence action against DIGSA in % reported as 90

// sample CC#Cc1cc(C)c(C2=C(O)C3(CCC(COC)C3)NC2=O)c(Br)c1 (stereo not drawn) [Example I-18] , its Post-emergence action against DIGSA in % was 100

The compound CC#Cc1cc(C)c(C2=C(O)C3(CCC(COC)C3)NC2=O)c(Br)c1 (stereo not drawn) [Example I-19] showed Post-emergence action against DIGSA in % equal to 100

// recorded Post-emergence action against DIGSA in % for CC#Cc1cc(Br)c(C2=C(O)C3(CCC(COC)C3)NC2=O)c(OCC)c1 (stereo not drawn) [Example I-66] : 90

According to the records, this compound CC#Cc1cc(C)c(C2=C(OC(=O)OCC)C3(CCC(COC)C3)NC2=O)c(F)c1 (stereo not drawn) [Example P-51] displays Post-emergence action against DIGSA in % of 100

For CC#Cc1cc(Br)c(C2=C(OC(=O)OCC)C3(CCC(COCC)C3)NC2=O)c(OCC)c1 (stereo not drawn) [Example P-95] the compound record lists Post-emergence action against DIGSA in % as 80

Per the record, C=CCOCC1CCC2(C1)NC(=O)C(c1c(C)cc(C#CC)cc1Br)=C2O (stereo not drawn) [Example I-70] has Post-emergence action against DIGSA in % of 90

The compound identified as CC#Cc1cc(Br)c(C2=C(O)C3(CCC(COC)C3)NC2=O)c(OC)c1 (stereo not drawn) [Example I-10] registered its Post-emergence action against DIGSA in % at 100

Record CC#Cc1cc(C)c(C2=C(O)C3(CCC(COCCC)C3)NC2=O)c(OC)c1 (stereo not drawn) [Example I-59] . Reported Post-emergence action against DIGSA in %: 100

Lab book: Post-emergence action against DIGSA in % of CC#Cc1cc(C)c(C2=C(OC(=O)OCC)C3(CCC(COCC)C3)NC2=O)c(Cl)c1 (stereo not drawn) [Example P-11] noted as 100

Post-emergence action against DIGSA in % in this record for CC#Cc1cc(Cl)c(C2=C(OC(=O)OCC)C3(CCC(COCC)C3)NC2=O)c(CC)c1 (stereo not drawn) [Example P-21] : 100

Input CC#Cc1cc(C)c(C2=C(OC(=O)C(C)C)C3(CCC(COCC)C3)NC2=O)c(F)c1 (stereo not drawn) [Example P-56] . Output Post-emergence action against DIGSA in %: 100
